System: MALME-3M melanoma
Test: NCI tumour cell line growth inhibition, 48 h
Recorded TGI for the following compounds

Some entries whose results are on file:
• Cc1cc2c(cc1Cl)SC1=CC(=O)N(c3ccccc3)C1=NS2(=O)=O = > 100 µM
• O=c1cc(-c2cccc(C(F)(F)F)c2)[nH]c2cc3c(cc12)OCO3 = > 100 µM
• Cc1ccccc1C1CC(=O)CC(c2ccccc2C)C12C(=O)NC(=O)NC2=O (stereo unspecified) = > 100 µM
• CCOC(C)C(/C=N/NC(N)=S)=NNC(N)=S (stereo unspecified) = > 100 µM
• CC1=CC(=NC(=O)CBr)C=C/C1=N\S(=O)(=O)c1ccccc1 = 5.89 µM

Please examine the following record next.
Give a short answer stating reported TGI for C/C(=N\NS(=O)(=O)c1ccc(C)cc1)C(CN1CCOCC1)C(c1ccccc1)c1c(O)c2ccccc2oc1=O (stereo unspecified) .
> 100 µM

====

Recorded TGI for the following compounds
Test system: SW-620 colon
Test: NCI tumour cell line growth inhibition, 48 h

Some entries whose results are on file:
- Cc1ccc([N+](=O)[O-])c2c(NCCNC(=O)Cn3ccnc3[N+](=O)[O-])ccnc12: > 100 µM
- Cc1ccc2c(c1)C(=O)/C(=C\c1ccccc1)CCS2(=O)=O: 73.5 µM

Please examine the following record next.
Give a short answer stating reported TGI for COc1ccc(CN2C[C@H]3[C@@H](CC(=O)O[C@H]3C)CC2=O)cc1 .
> 100 µM

====

Recorded TGI for the following compounds
Test system: SNB-19 CNS
Assay: NCI tumour cell line growth inhibition, 48 h

Some entries whose results are on file:
• C#CCOC(=O)c1ccccc1O = > 100 µM
• CN(C)c1ccc(-c2cc(=O)c3cc4c(cc3[nH]2)OCO4)cc1 = > 100 µM
• COc1ccc(NC(=O)CC(=O)N2N=C(N3CCCCC3)CC2c2ccccc2)cc1 (stereo not drawn) = > 100 µM
• Cc1cc(O)cc2oc(=O)c3c(O)cc(O)cc3c12 = 76 µM
• c1ccc(Cn2cc3c(c2-c2ccccc2)CCc2cnoc2-3)cc1 = > 100 µM

Tell me TGI of O=S(=O)(O)O.[NH-]C1CCCCC1[NH-].[Pt+2] (stereo not drawn) when tested on SNB-19 CNS.
> 100 µM

Tell me TGI of COc1ccc(N(CC(=O)NCCC[Te]c2ccccc2)C(=O)c2ccccc2)cc1 when tested on SNB-19 CNS.
59 µM

Tell me TGI of C=C(C)C1CC=C(C)[C@](O)(C2(O)C[C@H](C(=C)C)CC=C2C)C1 (stereo partly drawn) when tested on SNB-19 CNS.
> 100 µM

Tell me TGI of COc1ccc(C(=O)OCC2OC(n3cnc4c(=S)nc[nH]c43)C(OC(=O)c3ccc(OC)cc3)C2OC(=O)c2ccc(OC)cc2)cc1 (stereo not drawn) when tested on SNB-19 CNS.
> 100 µM

Tell me TGI of COc1cc(NS(C)(=O)=O)ccc1Nc1c2ccc(Cl)cc2nc2c(OC)cccc12 when tested on SNB-19 CNS.
22.3 µM

Tell me TGI of CCOC(=O)C12CCCC1(O)N(NC(=O)c1ccccc1)C(C)=C2C(=O)OC (stereo not drawn) when tested on SNB-19 CNS.
> 100 µM

Tell me TGI of Nc1nc(N)c(N=O)c(Nc2ccc(O)cc2)n1 when tested on SNB-19 CNS.
> 100 µM

Tell me TGI of CC1Cc2c(Br)nc(N)nc2NC1=O (stereo not drawn) when tested on SNB-19 CNS.
> 100 µM
